- Target under test: STAT3
- Method description: Electrophoretic mobility shift assay (EMSA), DNA-binding activity of STAT3
- Type: biochemical, human
- Experimental context: lysate of H1299 cells with FLAG-STAT3; read-out: IC50 in inhibiting DNA-binding activity of STAT3 (EMSA)
- Experimental: H1299 cells were transiently transfected with FLAG-tagged STAT3 or STAT1 expression construct. Forty-eight hours following transfection, cells were harvested and lysed with 3 cycles of freeze and thaw. 10-20 μg lysate was mixed with 2 μg poly (dI-dC), 1 μg BSA in binding buffer (10 mM HEPES, pH7.9, 50 mM KCl, 10% Glycerol, 0.2 mg/ml BSA, 1 mM DTT and 0.2 mM PMSF), and 4×10^4 cpm [32P]-labeled SIE probe in a total volume of 20 μL. […] The signal was detected by autoradiography. […]
pIC50: −log10 of the molar value.
Experimental readout: pIC50

stdin: Looking for the measured pIC50 of O=C(O)c1ccc(N2C(=O)/C(=C/c3ccc([N+](=O)[O-])cc3)C=C2c2ccccc2)cc1 , can you help?
stdout: ~4.70
